experiment: patients with anti-drug antibodies; higher = more immunogenic
Readout Name: patients with anti-drug antibodies (%)
Form entry: value (%) — number only.

INPUT: Look at this protein and give its reported patients with anti-drug antibodies. unnamed (protein) chain 1: QIQLQQSGPEVVKPGASVKISCKASGYTFTDYYITWVKQKPGQGLEWIGWIYPGSGNTKYNEKFKGKATLTVDTSSSTAFMQLSSLTSEDTAVYFCANYGNYWFAYWGQGTQVTVSA chain 2: DIVLTQSPASLAVSLGQRATISCKASQSVDFDGDSYMNWYQQKPGQPPKVLIYAASNLESGIPARFSGSGSGTDFTLNIHPVEEEDAATYYCQQSNEDPWTFGGGTKLEIK
OUTPUT: 35

---
INPUT: Look at this protein and give its reported patients with anti-drug antibodies. unnamed (protein) chain 1: QVQLQQSGAELVRPGSSVKISCKASGYAFSSYWMNWVKQRPGQGLEWIGQIWPGDGDTNYNGKFKGKATLTADESSSTAYMQLSSLASEDSAVYFCARRETTTVGRYYYAMDYWGQGTTVTVSS chain 2: DIQLTQSPASLAVSLGQRATISCKASQSVDYDGDSYLNWYQQIPGQPPKLLIYDASNLVSGIPPRFSGSGSGTDFTLNIHPVEKVDAATYHCQQSTEDPWTFGGGTKLEIK
OUTPUT: 1.4

INPUT: Thanks! And unnamed (protein) chain 1: QVQLQQSGPEVVKPGASVKMSCKASGYTFTSYVIHWVRQKPGQGLDWIGYINPYNDGTDYDEKFKGKATLTSDTSTSTAYMELSSLRSEDTAVYYCAREKDNYATGAWFAYWGQGTLVTVSS chain 2: DIVMTQSPDSLAVSLGERVTMNCKSSQSLLYSTNQKNYLAWYQQKPGQSPKLLIYWASTRESGVPDRFSGSGSGTDFTLTISSVQAEDVAVYYCQQYYSYRTFGGGTKLEIK ?
OUTPUT: 15

INPUT: Thanks! And unnamed (protein) chain 1: QVQLVESGGGVVQPGRSLRLSCAASGFTFSVYGMNWVRQAPGKGLEWVAIIWYDGDNQYYADSVKGRFTISRDNSKNTLYLQMNGLRAEDTAVYYCARDLRTGPFDYWGQGTLVTVSS chain 2: EIVLTQSPDFQSVTPKEKVTITCRASQSIGSSLHWYQQKPDQSPKLLIKYASQSFSGVPSRFSGSGSGTDFTLTINSLEAEDAAAYYCHQSSSLPFTFGPGTKVDIK ?
OUTPUT: 0

INPUT: Thanks! And unnamed (protein) chain 1: EVQLVESGGGLVQPGGSLRLSCAASGFTFNTYAMYWIRQAPGKGLEWVARIRSKSNNYAIYYADSVKDRFTISRDDSKNSLYLQMNSLKTEDTAVYYCARPYSDSFAYWGQGTLVTVSS chain 2: DVVMTQSPLSLPVTPGEPASISCRSSQSLVHSTGNTYLHWYLQKPGQSPQLLIYKVSNRFSGVPDRFSGSGSGTDFTLKISRVEAEDVGVYYCSQSTHVPFTFGGGTKVEIK ?
OUTPUT: 0
